Each recorded value in this set is attributed to PubChem BioAssay (NCI).

Exercise: for every item that follows, state its recorded TGI.
system: LOX IMVI melanoma; test: NCI tumour cell line growth inhibition, 48 h

Prompt: Name the recorded TGI for Clc1cc(Cl)c2c(Cl)cc(Cl)c3c2c1N=S=N3 .
Completion: > 100 µM

Prompt: What would you report for CCOC(=O)Cc1nn2c(=O)cc(C)nc2s1 ?
Completion: > 100 µM

Prompt: What would you report for Cc1cc2c(cc1Cl)SC(NNc1cnc3ccccc3n1)=NS2(=O)=O ?
Completion: > 100 µM

Prompt: What would you report for CC(C)(C)c1nc2c(o1)C(=Nc1ccc(F)cc1)c1ccccc1C2=O ?
Completion: 13 µM

Prompt: What would you report for COc1cc(-c2cn(C)c(=O)c(C)c2C)cc(OC)c1CN1CC[C@H](N2CCN(c3ccc(N[C@H]4CCC(=O)NC4=O)cc3F)CC2)C(F)(F)C1 ?
Completion: 24.9 µM

Prompt: What would you report for O=C(N/N=C/c1ccc(Cl)cc1Cl)c1ccccc1Nc1cccc(C(F)(F)F)c1 ?
Completion: 63.7 µM

Prompt: What would you report for CCOC(=O)C(C)NC(=O)N(C)C12CC3CC(CC(C3)C1)C2 (stereo unspecified) ?
Completion: 323 µM

Prompt: What would you report for NC(=S)N=Nc1c(O)cc(Nc2ccc(Cl)cc2Cl)c2ccccc12 ?
Completion: > 100 µM

Prompt: What would you report for CC1=Nc2c(ccc3c2C(=O)c2ccccc2C3=O)NC(c2ccncc2)C1 (stereo unspecified) ?
Completion: > 100 µM

Prompt: What would you report for CCC1(CC)C(=O)NC(=S)N=C1N ?
Completion: > 100 µM

Prompt: What would you report for c1ccc(-c2ccc(N=NN3CCCC3)cc2)cc1 ?
Completion: > 100 µM

----------
Exercise: for every item that follows, state its recorded TGI.
system: NCI-H522 lung; assay: NCI tumour cell line growth inhibition, 48 h
Give just the number in µM; leave the unit off.

Prompt: Name the recorded TGI for Clc1ccc(OCc2nnc3n2N=C(c2ccc(Cl)cc2Cl)CS3)c(Cl)c1 .
Completion: 37.6

Prompt: What would you report for CNC(=O)c1cc(Oc2ccc(NC(=O)Nc3ccc(Cl)c(OC(F)(F)F)c3)c(F)c2)ccn1 ?
Completion: 14.8

Prompt: What would you report for COc1cc(-c2cn(C)c(=O)c(C)c2C)cc(OC)c1CN1CC[C@H](N2CCN(c3ccc(N[C@H]4CCC(=O)NC4=O)cc3F)CC2)C(F)(F)C1 ?
Completion: 24.1

Prompt: What would you report for C(=N/Nc1ccc(-c2nc3ccccc3[nH]2)cc1)/c1c(-c2ccccc2)[nH]c2ccccc12 ?
Completion: 2.02

----------
tested on: OVCAR-3 ovarian; assay: NCI tumour cell line growth inhibition, 48 h
readout: TGI (µM)
Give just the number in µM; leave the unit off.

Prompt: Name the recorded TGI for CC(=O)[CH-]C(C)=O.CC(=O)[CH-]C(C)=O.N=CC=N.[Sn+2] .
Completion: 9.13

Prompt: What would you report for CC(C)(C)c1ccc2c(c1)OCc1n[nH]c(n1)COc1cc(C(C)(C)C)ccc1OCCOCCO2 ?
Completion: 7.47

Prompt: What would you report for CCOC(=O)[C@@H](C)C[C@H](Cc1ccccc1)NC(=O)c1csc([C@@H](C[C@H](C(C)C)N(C)C(=O)[C@@H](NC(=O)[C@H]2CCCCN2C)C(C)(C)C)OC(C)=O)n1 ?
Completion: 0.00352

Prompt: What would you report for N#CC(C#N)=Cc1cccc(Oc2ccccc2)c1 ?
Completion: 72

Prompt: What would you report for Oc1ccc(Cc2ccccc2)c2cccnc12 ?
Completion: 37.6

Prompt: What would you report for CCOc1cccc2nc3cccc(C(=O)NCCN(C)C)c3nc12 ?
Completion: 5.51
